target: human D3 dopamine receptors (Homo sapiens, UniProt P35462); assay: Forskolin-dependent adenylyl cyclase inhibition assay; type: cell-based
Sequence (P35462 whole entry): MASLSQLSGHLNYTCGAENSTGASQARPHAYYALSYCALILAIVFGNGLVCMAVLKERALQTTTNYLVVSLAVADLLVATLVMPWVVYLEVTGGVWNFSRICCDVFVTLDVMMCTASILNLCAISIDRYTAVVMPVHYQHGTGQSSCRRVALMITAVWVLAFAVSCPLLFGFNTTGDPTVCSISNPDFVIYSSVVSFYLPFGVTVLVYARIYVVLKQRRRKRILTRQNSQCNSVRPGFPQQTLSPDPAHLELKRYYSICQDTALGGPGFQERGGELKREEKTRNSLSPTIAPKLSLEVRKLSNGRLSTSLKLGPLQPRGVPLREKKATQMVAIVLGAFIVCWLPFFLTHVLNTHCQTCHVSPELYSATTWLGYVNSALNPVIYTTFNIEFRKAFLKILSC
MEASURED_METRIC: efficacy in adenylyl cyclase inhibition assay (in words)

Which efficacy in adenylyl cyclase inhibition assay (in words) is reported for this molecule? COc1ccccc1N1CCN(C/C=C/CNC(=O)c2ccc(-c3cccnc3)cc2)CC1
greatest efficacy

Recorded efficacy in adenylyl cyclase inhibition assay (in words) for COc1ccccc1N1CCN(CCCCNC(=O)c2ccc(-c3cccnc3)cc2)CC1 , please?
greatest efficacy
